GCGR + 10% plasma: recorded values
target: human glucagon receptor (human, UniProt P47871 26-477); test: cell-based or functional assay
Sequence (P47871 26-477): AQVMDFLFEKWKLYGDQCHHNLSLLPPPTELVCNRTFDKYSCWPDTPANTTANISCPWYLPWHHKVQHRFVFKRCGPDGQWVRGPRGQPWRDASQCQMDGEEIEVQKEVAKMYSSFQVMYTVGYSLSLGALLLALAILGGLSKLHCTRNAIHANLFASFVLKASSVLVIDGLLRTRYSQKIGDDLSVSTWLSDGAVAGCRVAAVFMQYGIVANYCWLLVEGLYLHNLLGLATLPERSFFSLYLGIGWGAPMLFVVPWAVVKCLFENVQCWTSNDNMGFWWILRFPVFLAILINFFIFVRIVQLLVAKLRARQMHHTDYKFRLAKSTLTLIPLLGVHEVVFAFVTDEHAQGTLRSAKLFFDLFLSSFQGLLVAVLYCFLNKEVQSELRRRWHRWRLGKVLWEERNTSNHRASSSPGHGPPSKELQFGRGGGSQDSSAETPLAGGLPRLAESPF
*1 amine or outer side, *2 acyl side, *3 side chain or, on linkers, in order; H or OH if unused. Where no end group is shown, it is not given here. [ ]: non-standard residue; d: D form. O‑methyl‑L‑homoserine = COCC[C@H](N[*:1])C(=O)[*:2]; Nle = CCCC[C@H](N)C(=O)O; Aib = CC(C)(N)C(=O)O
Give the value, in units of nM, as a plain number.

Previously resolved entries follow.
{"columns": ["BINDER", "DISPLAY UNIT", "TEST VALUE"],
 "data": [
  ["H[Aib]QGTFTSDYSKYLDSRRAQDFVQWL[O‑methyl‑L‑homoserine]NTKRNRNNIAC(cholesterol)-NH2 [OXM213]", "nM", 1210],
  ["H[Aib]QGTFTSDYSKYLDSRRAQDFVQWL[Nle]NTKRNRNNIAC(cholesterol)-NH2 [OXM212]", "nM", 1030]
]}

Now take the following binder into account.
Query (binder): HXQGTFTSDYSKYLDSRRAQDFVQWLMNTKRNRNNIAC (Aib at position 2; C4 = Cys(cholest-5-en-3-yl{[(2R)-3-amino-2-(amino)-3-oxopropyl]thio}acetate) at position 38; C-terminal amide) [OXM70] ; field requested: GCGR + 10% plasma
169
